Listed next: entries and their corresponding pIC50.
Target: HDAC1 (Homo sapiens)
Sequence (Q13547 whole entry, species assumed): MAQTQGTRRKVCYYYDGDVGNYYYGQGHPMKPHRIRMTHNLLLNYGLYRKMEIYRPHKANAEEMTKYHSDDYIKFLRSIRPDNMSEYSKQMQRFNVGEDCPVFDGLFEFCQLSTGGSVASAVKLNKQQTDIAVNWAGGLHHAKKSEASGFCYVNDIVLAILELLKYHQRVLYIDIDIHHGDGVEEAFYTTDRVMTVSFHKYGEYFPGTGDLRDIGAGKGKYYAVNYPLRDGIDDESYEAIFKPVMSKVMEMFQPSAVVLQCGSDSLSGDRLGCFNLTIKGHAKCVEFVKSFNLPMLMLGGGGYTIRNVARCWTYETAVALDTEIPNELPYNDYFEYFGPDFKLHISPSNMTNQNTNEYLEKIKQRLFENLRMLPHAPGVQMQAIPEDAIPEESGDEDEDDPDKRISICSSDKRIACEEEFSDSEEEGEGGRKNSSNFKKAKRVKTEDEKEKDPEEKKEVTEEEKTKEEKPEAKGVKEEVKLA
Assay: Measurement of biochemical activities of HDAC (fluorescently-labeled acetylated lysine substrate)
Settings: read-out: IC50 HDAC1
pIC50: −log10 of the molar value.

Answered cases to consult:
{"columns": ["ENTRY SMILES", "pIC50"],
 "data": [
  ["C/C=C1\\NC(=O)c2csc(n2)CNC(=O)C[C@@H](/C=C/CCSC(=O)CCCCCCC)OC(=O)[C@H](C)NC1=O", "> 6.00"],
  ["C/C=C1\\NC(=O)C2=NC(=NC2)CNC(=O)C[C@@H](/C=C/CCSC(=O)CCCCCCC)OC(=O)[C@H](C(C)C)NC1=O", "> 5.00"],
  ["C/C=C1\\NC(=O)c2csc(n2)[C@H](C)NC(=O)C[C@@H](/C=C/CCSC(=O)CCCCCCC)OC(=O)[C@H](C(C)C)NC1=O", "> 7.00"]
]}

Consider now this further compound.
### Prompt Please indicate pIC50 recorded for C/C=C1\NC(=O)c2csc(n2)CNC(=O)C[C@@H](/C=C/CCSC(=O)CCCCCCC)OC(=O)[C@H](Cc2ccccc2)NC1=O
### Response > 5.00

// data source = patent US8933195B2
